# Test system: Mycobacterium tuberculosis
# assay.comment: Inhibition of ATP synthase in multi-drug resistant Mycobacterium tuberculosis clinical isolate 13946 assessed as reduction in bacterial growth incubated for 7 days by microplate alamar blue assay
# reported.conditions: time 7.0 day
Note to self: MIC=>90 under 0.5 µg/mL means condition met, ties and anything higher get condition not met.

Below, 3 compounds whose answers are already recorded.
[[record]]
smiles_representation = "CO[C@H]1/C=C/O[C@@]2(C)Oc3c(C)c(O)c4c(O)c(c(/C=N/N5CCN(C)CC5)c(O)c4c3C2=O)NC(=O)/C(C)=C\\C=C\\[C@H](C)[C@H](O)[C@@H](C)[C@@H](O)[C@@H](C)[C@H](OC(C)=O)[C@@H]1C"
group_label = "condition not met"

[[record]]
smiles_representation = "O=c1c(NCc2ccccn2)c(Nc2ccc3c(c2)CCC3)c1=O"
group_label = "condition not met"

[[record]]
smiles_representation = "O=c1c(NCc2ccccn2)c(-c2ccc(N3CCOCC3)cc2)c1=O"
group_label = "condition met"


Now look at this one.
Regarding `NNC(=O)c1ccncc1` , kindly confirm whether its MIC=>90 is beneath 0.5 µg/mL.
condition not met

Just for reference, ChEMBL document CHEMBL4765447 is where these values come from.
